Test system: H. influenzae 474
protocol_description: MIC against Haemophilus strains
Format: cell-based
conditions: s. No. 11, H. influenzae 474
Here, each record is paired with measured MIC data.
test_readout: MIC (µg/mL)

[[record]]
compound = "C[C@H]1COc2c(N3CCN(C)CC3)c(F)cc3c(=O)c(C(=O)O)cn1c23 [LevoFloxaci, reference compound]"
inequality_operator = "="
assay_value = 0.015

[[record]]
compound = "CC(=O)NC[C@H]1CN(c2ccc(N3CCN(c4ccc([N+](=O)[O-])s4)CC3)cc2)C(=O)O1"
inequality_operator = "="
assay_value = 16

[[record]]
compound = "C[C@H](Cl)C(=O)NCC1CN(c2ccc(N3CCN(c4ccc([N+](=O)[O-])s4)CC3)c(F)c2)C(=O)O1 (stereo partly drawn)"
inequality_operator = ">"
assay_value = 16

[[record]]
compound = "CO/N=C(\\C(=O)N[C@@H]1C(=O)N2C(C(=O)O)=C(CSc3nc(=O)c(O)nn3C)CS[C@H]12)c1csc(N)n1 [Ceftriaxone, reference compound]"
inequality_operator = "="
assay_value = 0.004

[[record]]
compound = "O=C(NC[C@H]1CN(c2ccc(N3CCN(c4ccc([N+](=O)[O-])s4)CC3)c(F)c2)C(=O)O1)C(Cl)Cl"
inequality_operator = ">"
assay_value = 16

[[record]]
compound = "CC(=O)NC[C@H]1CN(c2ccc(N3CCN(c4cc(C(OC(C)=O)OC(C)=O)sc4[N+](=O)[O-])CC3)c(F)c2)C(=O)O1"
inequality_operator = ">"
assay_value = 16


---

System: S. pneumoniae AB 29
protocol_description: MIC, agar incorporation method
Format: cell-based, Streptococcus pneumoniae
conditions: S. No. 46, S. pneumoniae AB 29
Listed molecules paired with reported MIC
test_readout: MIC (µg/mL)

[[record]]
molecule = "CC(=O)NC[C@H]1CN(c2ccc(N3CCN(c4cc(C(OC(C)=O)OC(C)=O)sc4[N+](=O)[O-])CC3)c(F)c2)C(=O)O1"
assay_value = 0.5

[[record]]
molecule = "O=C(NC[C@H]1CN(c2ccc(N3CCN(c4ccc([N+](=O)[O-])s4)CC3)c(F)c2)C(=O)O1)C(Cl)Cl"
assay_value = 0.25

[[record]]
molecule = "CC(=O)NC[C@H]1CN(c2ccc(N3CCN(c4ccc([N+](=O)[O-])s4)CC3)cc2)C(=O)O1"
assay_value = 0.5

[[record]]
molecule = "C[C@H](Cl)C(=O)NCC1CN(c2ccc(N3CCN(c4ccc([N+](=O)[O-])s4)CC3)c(F)c2)C(=O)O1 (stereo partly shown)"
assay_value = 0.5


---

Test system: M. avium intracellulare 19/97
protocol_description: MIC against MAC strains, agar dilution
Assay type: cell-based
conditions: S. No. 17 Mai-10, M. avium intracellulare 19/97; Middle Brook 7H10 + OADC, 37° C., 14-21 days
test_readout: MIC (µg/mL)

[[record]]
smiles_data = "NNC(=O)c1ccncc1"
test_readout = "MIC"
readout_units = "µg/mL"
inequality_operator = "="
assay_value = 32

[[record]]
smiles_data = "CO[C@H]1/C=C/O[C@@]2(C)Oc3c(C)c(O)c4c(O)c(c(/C=N/N5CCN(C)CC5)c(O)c4c3C2=O)NC(=O)/C(C)=C\\C=C\\[C@H](C)[C@H](O)[C@@H](C)[C@@H](O)[C@@H](C)[C@H](OC(C)=O)[C@@H]1C"
test_readout = "MIC"
readout_units = "µg/mL"
inequality_operator = ">"
assay_value = 32

[[record]]
smiles_data = "C[C@@H]1CN(c2c(F)c(N)c3c(=O)c(C(=O)O)cn(C4CC4)c3c2F)C[C@H](C)N1"
test_readout = "MIC"
readout_units = "µg/mL"
inequality_operator = "="
assay_value = 1.0

[[record]]
smiles_data = "CCc1cc(C(N)=S)ccn1"
test_readout = "MIC"
readout_units = "µg/mL"
inequality_operator = "="
assay_value = 16

[[record]]
smiles_data = "CC[C@H]1OC(=O)[C@H](C)[C@@H](O[C@H]2C[C@@](C)(OC)[C@@H](O)[C@H](C)O2)[C@H](C)[C@@H](O[C@@H]2O[C@H](C)C[C@H](N(C)C)[C@H]2O)[C@](C)(OC)C[C@@H](C)C(=O)[C@H](C)[C@@H](O)[C@]1(C)O"
test_readout = "MIC"
readout_units = "µg/mL"
inequality_operator = "="
assay_value = 32


---

Tested on: M. avium intracellulare 1211/96
protocol_description: MIC against MAC strains, agar dilution
Format: cell-based
conditions: S. No. 13 Mai-5, M. avium intracellulare 1211/96; Middle Brook 7H10 + OADC, 37° C., 14-21 days
test_readout: MIC (µg/mL)

[[record]]
smiles_data = "CCc1cc(C(N)=S)ccn1"
test_readout = "MIC"
assay_value = 1.0

[[record]]
smiles_data = "CC[C@H]1OC(=O)[C@H](C)[C@@H](O[C@H]2C[C@@](C)(OC)[C@@H](O)[C@H](C)O2)[C@H](C)[C@@H](O[C@@H]2O[C@H](C)C[C@H](N(C)C)[C@H]2O)[C@](C)(OC)C[C@@H](C)C(=O)[C@H](C)[C@@H](O)[C@]1(C)O"
test_readout = "MIC"
assay_value = 0.25

[[record]]
smiles_data = "NNC(=O)c1ccncc1"
test_readout = "MIC"
assay_value = 32

[[record]]
smiles_data = "CO[C@H]1/C=C/O[C@@]2(C)Oc3c(C)c(O)c4c(O)c(c(/C=N/N5CCN(C)CC5)c(O)c4c3C2=O)NC(=O)/C(C)=C\\C=C\\[C@H](C)[C@H](O)[C@@H](C)[C@@H](O)[C@@H](C)[C@H](OC(C)=O)[C@@H]1C"
test_readout = "MIC"
assay_value = 0.25

[[record]]
smiles_data = "C[C@@H]1CN(c2c(F)c(N)c3c(=O)c(C(=O)O)cn(C4CC4)c3c2F)C[C@H](C)N1"
test_readout = "MIC"
assay_value = 4.0


---

Each entry below carries its recorded MIC.
System: H. influenzae P318
protocol_description: MIC against Haemophilus strains
Assay type: cell-based
conditions: Haemophilus influenzae; s. No. 10, H. influenzae P318; read-out: MIC
test_readout: MIC (µg/mL)

[[record]]
compound = "CC[C@H]1OC(=O)[C@H](C)C(=O)[C@H](C)[C@@H](O[C@@H]2O[C@H](C)C[C@H](N(C)C)[C@H]2O)[C@](C)(OC)C[C@@H](C)C(=O)[C@H](C)[C@H]2N(CCCCn3cnc(-c4cccnc4)c3)C(=O)O[C@]12C [Telithromycin, reference compound]"
study_system = "H. influenzae P318"
test_readout = "MIC"
readout_units = "µg/mL"
inequality_operator = "="
assay_value = 1

[[record]]
compound = "CC(=O)NC[C@H]1CN(c2ccc(N3CCOCC3)c(F)c2)C(=O)O1 [Linezolid, reference compound]"
study_system = "H. influenzae P318"
test_readout = "MIC"
readout_units = "µg/mL"
inequality_operator = "="
assay_value = 16

[[record]]
compound = "CC(=O)NC[C@H]1CN(c2ccc(N3CCN(c4ccc(C=O)o4)CC3)c(F)c2)C(=O)O1"
study_system = "H. influenzae P318"
test_readout = "MIC"
readout_units = "µg/mL"
inequality_operator = "="
assay_value = 8

[[record]]
compound = "CC(=O)NC[C@H]1CN(c2ccc(N3CCN(c4ccc(C=O)s4)CC3)c(F)c2)C(=O)O1"
study_system = "H. influenzae P318"
test_readout = "MIC"
readout_units = "µg/mL"
inequality_operator = ">"
assay_value = 16

[[record]]
compound = "CC(=O)NC[C@H]1CN(c2ccc(N3CCN(c4ccc([N+](=O)[O-])s4)CC3)c(F)c2)C(=O)O1"
study_system = "H. influenzae P318"
test_readout = "MIC"
readout_units = "µg/mL"
inequality_operator = "="
assay_value = 16


---

Test system: H. influenzae 1381
protocol_description: MIC against Haemophilus strains
Type: cell-based
conditions: s. No. 7, H. influenzae 1381
MIC values, listed per item
test_readout: MIC

[[record]]
compound = "CC(=O)NC[C@H]1CN(c2ccc(N3CCN(c4ccc([N+](=O)[O-])s4)CC3)cc2)C(=O)O1"
study_system = "H. influenzae 1381"
test_readout = "MIC"
assay_value = "16 µg/mL"

[[record]]
compound = "CO/N=C(\\C(=O)N[C@@H]1C(=O)N2C(C(=O)O)=C(CSc3nc(=O)c(O)nn3C)CS[C@H]12)c1csc(N)n1 [Ceftriaxone, reference compound]"
study_system = "H. influenzae 1381"
test_readout = "MIC"
assay_value = "0.008 µg/mL"

[[record]]
compound = "C[C@H](Cl)C(=O)NCC1CN(c2ccc(N3CCN(c4ccc([N+](=O)[O-])s4)CC3)c(F)c2)C(=O)O1 (stereo partly drawn)"
study_system = "H. influenzae 1381"
test_readout = "MIC"
assay_value = ">16 µg/mL"

[[record]]
compound = "CC(=O)NC[C@H]1CN(c2ccc(N3CCN(c4cc(C(OC(C)=O)OC(C)=O)sc4[N+](=O)[O-])CC3)c(F)c2)C(=O)O1"
study_system = "H. influenzae 1381"
test_readout = "MIC"
assay_value = ">16 µg/mL"

[[record]]
compound = "O=C(NC[C@H]1CN(c2ccc(N3CCN(c4ccc([N+](=O)[O-])s4)CC3)c(F)c2)C(=O)O1)C(Cl)Cl"
study_system = "H. influenzae 1381"
test_readout = "MIC"
assay_value = ">16 µg/mL"

[[record]]
compound = "C[C@H]1COc2c(N3CCN(C)CC3)c(F)cc3c(=O)c(C(=O)O)cn1c23 [LevoFloxaci, reference compound]"
study_system = "H. influenzae 1381"
test_readout = "MIC"
assay_value = "0.015 µg/mL"

